Biological target: human Fc (human)
Assay: ELISA, negative control
Outcome Measure: optical density (OD)
Response body: numeric value in OD, unit text excluded.

Here is how some binders turned out for optical density.
Request: Which value of optical density has been reported for 366_G06 (antibody, V domains shown) VH: EVQLLESGGGLVQPGGSLRLSCAASGFTFSSYGMHWVRQAPGKGLEWVASINYNGGYTGYADSVKGRFTISRDNSKNTLYLQMNSLRAEDTAVYYCARAANWHDTHLDYWGQGTLVTVSS VL: DIQMTQSPSSLSASVGDRVTITCRASQSIVSYVNWYQQKPGKAPKLVIYAATSRASGVPSRFSGSGSGTDFTLTISSLQPEDFATYYCQQSYDNPLTFGGGTKVEIK in the records?
Response: 0.341

Request: Which value of optical density has been reported for 370_A08 (antibody, V domains shown) VH: EVQLLESGGGLVQPGGSLRLSCAASGFTFDSYSMNWVRQAPGKGLEWVSSINYNSGYTGYADSVKGRFTISRDNSKNTLYLQMNSLRAEDTAVYYCARSATWHDTHLDYWGQGTLVTVSS VL: DIQMTQSPSSLSASVGDRVTITCRASQSIVTYLNWYQQKPGKAPKLVIYAATSRASGVPSRFSGSGSGTDFTLTISSLQPEDFATYYCQQSYDLPLTFGGGTKVEIK in the records?
Response: 0.319

Request: Which value of optical density has been reported for 371_H04 (antibody, V domains shown) VH: EVQLLESGGGLVQPGGSLRLSCAASGFTFSSYGMNWVRQAPGKGLEWVSNINYNGGYTGYADSVKGRFTISRDNSKNTLYLQMNSLRAEDTAVYYCARGANWHDTALDYWGQGTLVTVSS VL: DIQMTQSPSSLSASVGDRVTITCRASQSILTYLNWYQQKPGKAPKLLIYAATSRASGVPSRFSGSGSGTDFTLTISSLQPEDFATYYCQQSYNSPLTFGGGTKVEIK in the records?
Response: 0.35

Request: Which value of optical density has been reported for 367_C07 (antibody, V domains shown) VH: EVQLLESGGGLVQPGGSLRLSCAASGFTFSSYSMNWVRQAPGKGLEWVSSINYNSGYTGYADSVKGRFTISRDNSKNTLYLQMNSLRAEDTAVYYCARGANWHDTHLDYWGQGTLVTVSS VL: DIQMTQSPSSLSASVGDRVTITCRASQSILTYVNWYQQKPGKAPKLLIYAATSRASGVPSRFSGSGSGTDFTLTISSLQPEDFATYYCQQSYNLPLTFGGGTKVEIK in the records?
Response: 0.387

Further cases:
Request: Which value of optical density has been reported for 365_G06 (antibody, V domains shown) VH: EVQLLESGGGLVQPGGSLRLSCAASGFTFDSYGMHWVRQAPGKGLEWVAGINYNGGYTSYADSVKGRFTISRDNSKNTLYLQMNSLRAEDTAVYYCARAATWHDTHLDYWGQGTLVTVSS VL: DIQMTQSPSSLSASVGDRVTITCRASQSILSYLNWYQQKPGKAPKLLIYAATSLASGVPSRFSGSGSGTDFTLTISSLQPEDFATYYCQQSDSTPLTFGGGTKVEIK in the records?
Response: 0.32
